Values compiled from ChEMBL document CHEMBL1129636.

target-desc: UniProt:Q13002
protocol-notes: Electrophysiological activity at 10 uM domoate from HEK293 cells transfected with Ionotropic glutamate receptor kainate 2
Type: functional, cell-based

| compound | Response [%] |
| --- | --- |
| C=C(c1cccc(OCCC(c2ccccc2)c2ccccc2)c1)[C@H]1CN[C@H](C(=O)O)[C@H]1CC(=O)O | 6 |
| C=C(c1ccc(-c2ccccc2)cc1)[C@H]1CN[C@H](C(=O)O)[C@H]1CC(=O)O | 58 |
| C=C(c1ccc(C)c(C)c1)[C@H]1CN[C@H](C(=O)O)[C@H]1CC(=O)O | 89 |
| C=C(c1ccc(F)c(C)c1)[C@H]1CN[C@H](C(=O)O)[C@H]1CC(=O)O | 76 |
| C=C(c1cccc(OCCCC)c1)[C@H]1CN[C@H](C(=O)O)[C@H]1CC(=O)O | 8 |
| C=C(c1ccccc1)[C@H]1CN[C@H](C(=O)O)[C@H]1CC(=O)O | 81 |
| C=C(c1ccc(OCCCC)cc1)[C@H]1CN[C@H](C(=O)O)[C@H]1CC(=O)O | 86 |
| CC(c1cccc(-c2ccccc2)c1)[C@H]1CN[C@H](C(=O)O)[C@H]1CC(=O)O (some centres undefined) | 14 |
| C=C(C)[C@H]1CN[C@H](C(=O)O)[C@H]1CC(=O)O | 85 |
| C=C(c1ccc(CCCC)cc1)[C@H]1CN[C@H](C(=O)O)[C@H]1CC(=O)O | 57 |
| C=C(c1ccc(OCCc2ccccc2)c(OC)c1)[C@H]1CN[C@H](C(=O)O)[C@H]1CC(=O)O | 20 |
| C=C(c1cccc(OC)c1)[C@H]1CN[C@H](C(=O)O)[C@H]1CC(=O)O | 77 |
| CC(c1ccccc1)[C@H]1CN[C@H](C(=O)O)[C@H]1CC(=O)O (some centres undefined) | 0 |
| C=C(c1ccc(CCC)cc1)[C@H]1CN[C@H](C(=O)O)[C@H]1CC(=O)O | 54 |
| C=C(c1ccc(C)cc1)[C@H]1CN[C@H](C(=O)O)[C@H]1CC(=O)O | 72 |
| C=C(c1ccc(OCCCCCc2ccccc2)cc1)[C@H]1CN[C@H](C(=O)O)[C@H]1CC(=O)O | 13 |
| C=C(C)c1ccc(C(=C)[C@H]2CN[C@H](C(=O)O)[C@H]2CC(=O)O)cc1 | 61 |
| C=C(c1ccc(OC)cc1)[C@H]1CN[C@H](C(=O)O)[C@H]1CC(=O)O | 76 |
| C=C(c1cc(C)cc(C)c1)[C@H]1CN[C@H](C(=O)O)[C@H]1CC(=O)O | 73 |
| C=C(c1ccc(Cl)cc1)[C@H]1CN[C@H](C(=O)O)[C@H]1CC(=O)O | 78 |
| C=C(c1cccc(-c2ccccc2)c1)[C@H]1CN[C@H](C(=O)O)[C@H]1CC(=O)O | 98 |
| C=C(c1ccc(CC)cc1)[C@H]1CN[C@H](C(=O)O)[C@H]1CC(=O)O | 63 |
| C=C(c1cccc(OCCc2ccccc2)c1)[C@H]1CN[C@H](C(=O)O)[C@H]1CC(=O)O | 43 |
| C=C(c1ccc(OCCCCC)c(C)c1)[C@H]1CN[C@H](C(=O)O)[C@H]1CC(=O)O | 46 |
| C=C(c1ccc(Oc2ccccc2)cc1)[C@H]1CN[C@H](C(=O)O)[C@H]1CC(=O)O | 59 |
| C=C(c1cccc(C)c1)[C@H]1CN[C@H](C(=O)O)[C@H]1CC(=O)O | 75 |
| C=C(c1ccc(C(C)(C)C)cc1)[C@H]1CN[C@H](C(=O)O)[C@H]1CC(=O)O | 31 |
| C=C(c1cccc(OCCC(c2ccccc2)c2ccccc2)c1)[C@@H]1CN[C@H](C(=O)O)[C@H]1CC(=O)O | 0 |
| C=C(c1ccc(F)cc1)[C@H]1CN[C@H](C(=O)O)[C@H]1CC(=O)O | 76 |
| C=C(CC)c1ccc(C(=C)[C@H]2CN[C@H](C(=O)O)[C@H]2CC(=O)O)cc1 | 38 |
| C=C(c1ccc(OCCc2ccccc2)c(C)c1)[C@H]1CN[C@H](C(=O)O)[C@H]1CC(=O)O | 64 |
| C=C(c1ccc(OCCc2ccccc2)cc1)[C@H]1CN[C@H](C(=O)O)[C@H]1CC(=O)O | 52 |
| C=C(c1cccc(-c2ccccc2)c1)[C@@H]1CN[C@H](C(=O)O)[C@H]1CC(=O)O | 0 |

----------
Entries and their Response
target-desc: UniProtKB Q13002
protocol-notes: Electrophysiological activity at 1 uM domoate from HEK293 cells transfected with ionotropic glutamate receptor kainate 2
Format: functional, cell-based

| smi | unit-abbreviation | Response |
| --- | --- | --- |
| C=C(c1cccc(OCCC(c2ccccc2)c2ccccc2)c1)[C@H]1CN[C@H](C(=O)O)[C@H]1CC(=O)O | % | 3 |
| C=C(c1ccc(F)cc1)[C@H]1CN[C@H](C(=O)O)[C@H]1CC(=O)O | % | 43 |
| C=C(c1ccc(OCCCC)cc1)[C@H]1CN[C@H](C(=O)O)[C@H]1CC(=O)O | % | 33 |
| C=C(c1ccc(Cl)cc1)[C@H]1CN[C@H](C(=O)O)[C@H]1CC(=O)O | % | 52 |
| C=C(c1cccc(-c2ccccc2)c1)[C@@H]1CN[C@H](C(=O)O)[C@H]1CC(=O)O | % | 0 |

----------
Entries and their Response
target-desc: Glutamate receptor ionotropic, kainate 2 (Homo sapiens)
Sequence (Q13002 whole entry): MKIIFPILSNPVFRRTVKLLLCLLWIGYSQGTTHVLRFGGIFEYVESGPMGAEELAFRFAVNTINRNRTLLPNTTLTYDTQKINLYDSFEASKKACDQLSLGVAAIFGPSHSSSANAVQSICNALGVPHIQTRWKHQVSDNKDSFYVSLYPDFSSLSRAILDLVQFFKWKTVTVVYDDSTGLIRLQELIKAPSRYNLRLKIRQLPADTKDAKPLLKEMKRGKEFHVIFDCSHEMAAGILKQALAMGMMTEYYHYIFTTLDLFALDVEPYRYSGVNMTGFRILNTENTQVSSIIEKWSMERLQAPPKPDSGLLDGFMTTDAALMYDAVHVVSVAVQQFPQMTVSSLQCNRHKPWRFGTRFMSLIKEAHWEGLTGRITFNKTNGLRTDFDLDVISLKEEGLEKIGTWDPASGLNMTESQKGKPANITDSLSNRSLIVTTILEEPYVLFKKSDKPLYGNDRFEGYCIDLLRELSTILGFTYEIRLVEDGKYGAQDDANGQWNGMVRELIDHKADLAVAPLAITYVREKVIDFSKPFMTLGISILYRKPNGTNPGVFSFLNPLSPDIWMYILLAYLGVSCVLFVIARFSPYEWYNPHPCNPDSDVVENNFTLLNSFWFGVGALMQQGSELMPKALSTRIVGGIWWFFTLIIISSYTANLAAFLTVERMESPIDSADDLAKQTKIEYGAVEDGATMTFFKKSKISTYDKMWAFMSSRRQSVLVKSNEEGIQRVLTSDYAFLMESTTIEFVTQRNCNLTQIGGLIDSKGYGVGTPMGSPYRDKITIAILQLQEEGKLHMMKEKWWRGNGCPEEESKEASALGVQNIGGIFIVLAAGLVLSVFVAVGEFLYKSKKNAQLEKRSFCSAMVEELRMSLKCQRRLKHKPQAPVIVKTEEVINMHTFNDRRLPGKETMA
protocol-notes: Electrophysiological activity at 30 uM domoate from HEK293 cells transfected with ionotropic glutamate receptor kainate 2
Type: functional, cell-based

| compound | Response (%) |
| --- | --- |
| C=C(c1ccc(OC)cc1)[C@H]1CN[C@H](C(=O)O)[C@H]1CC(=O)O | 82 |
| C=C(c1cccc(C)c1)[C@H]1CN[C@H](C(=O)O)[C@H]1CC(=O)O | 74 |
| C=C(c1ccccc1)[C@H]1CN[C@H](C(=O)O)[C@H]1CC(=O)O | 80 |
| C=C(c1ccc(Oc2ccccc2)cc1)[C@H]1CN[C@H](C(=O)O)[C@H]1CC(=O)O | 62 |
| C=C(c1cccc(OCCC(c2ccccc2)c2ccccc2)c1)[C@@H]1CN[C@H](C(=O)O)[C@H]1CC(=O)O | 0 |
| C=C(C)[C@H]1CN[C@H](C(=O)O)[C@H]1CC(=O)O | 101 |
| CC(c1ccccc1)[C@H]1CN[C@H](C(=O)O)[C@H]1CC(=O)O (some centres undefined) | 0 |
| C=C(c1cccc(-c2ccccc2)c1)[C@@H]1CN[C@H](C(=O)O)[C@H]1CC(=O)O | 0 |
| C=C(c1ccc(F)cc1)[C@H]1CN[C@H](C(=O)O)[C@H]1CC(=O)O | 78 |
| C=C(C)c1ccc(C(=C)[C@H]2CN[C@H](C(=O)O)[C@H]2CC(=O)O)cc1 | 66 |
| C=C(CC)c1ccc(C(=C)[C@H]2CN[C@H](C(=O)O)[C@H]2CC(=O)O)cc1 | 52 |
| C=C(c1ccc(OCCc2ccccc2)c(OC)c1)[C@H]1CN[C@H](C(=O)O)[C@H]1CC(=O)O | 44 |
| C=C(c1cccc(-c2ccccc2)c1)[C@H]1CN[C@H](C(=O)O)[C@H]1CC(=O)O | 103 |
| C=C(c1ccc(Cl)cc1)[C@H]1CN[C@H](C(=O)O)[C@H]1CC(=O)O | 83 |
| C=C(c1ccc(-c2ccccc2)cc1)[C@H]1CN[C@H](C(=O)O)[C@H]1CC(=O)O | 66 |
| C=C(c1ccc(OCCCC)cc1)[C@H]1CN[C@H](C(=O)O)[C@H]1CC(=O)O | 99 |
| C=C(c1ccc(OCCc2ccccc2)c(C)c1)[C@H]1CN[C@H](C(=O)O)[C@H]1CC(=O)O | 71 |
| C=C(c1ccc(CCCC)cc1)[C@H]1CN[C@H](C(=O)O)[C@H]1CC(=O)O | 63 |
| C=C(c1cccc(OCCCC)c1)[C@H]1CN[C@H](C(=O)O)[C@H]1CC(=O)O | 40 |
| C=C(c1ccc(OCCCCC)c(C)c1)[C@H]1CN[C@H](C(=O)O)[C@H]1CC(=O)O | 58 |
| C=C(c1ccc(C(C)(C)C)cc1)[C@H]1CN[C@H](C(=O)O)[C@H]1CC(=O)O | 46 |
| C=C(c1ccc(C)c(C)c1)[C@H]1CN[C@H](C(=O)O)[C@H]1CC(=O)O | 98 |
| C=C(c1ccc(F)c(C)c1)[C@H]1CN[C@H](C(=O)O)[C@H]1CC(=O)O | 100 |
| C=C(c1ccc(CC)cc1)[C@H]1CN[C@H](C(=O)O)[C@H]1CC(=O)O | 73 |
| C=C(c1cccc(OC)c1)[C@H]1CN[C@H](C(=O)O)[C@H]1CC(=O)O | 87 |
| CC(c1cccc(-c2ccccc2)c1)[C@H]1CN[C@H](C(=O)O)[C@H]1CC(=O)O (some centres undefined) | 16 |
| C=C(c1cccc(OCCC(c2ccccc2)c2ccccc2)c1)[C@H]1CN[C@H](C(=O)O)[C@H]1CC(=O)O | 14 |
| C=C(c1cc(C)cc(C)c1)[C@H]1CN[C@H](C(=O)O)[C@H]1CC(=O)O | 108 |
| C=C(c1ccc(OCCc2ccccc2)cc1)[C@H]1CN[C@H](C(=O)O)[C@H]1CC(=O)O | 66 |
| C=C(c1ccc(OCCCCCc2ccccc2)cc1)[C@H]1CN[C@H](C(=O)O)[C@H]1CC(=O)O | 27 |
| C=C(c1cccc(OCCc2ccccc2)c1)[C@H]1CN[C@H](C(=O)O)[C@H]1CC(=O)O | 70 |
| C=C(c1ccc(C)cc1)[C@H]1CN[C@H](C(=O)O)[C@H]1CC(=O)O | 76 |
| C=C(c1ccc(CCC)cc1)[C@H]1CN[C@H](C(=O)O)[C@H]1CC(=O)O | 66 |
